System: MCF7 breast
Experiment: NCI-60 one-dose screen, 48 h (100 = growth as untreated, 0 = no growth, -100 = all killed)
Settings: 10 µM unless noted
This is part of a sample that, as a whole, favours compounds with a hit. Of some 83,000 tested, about 20% had one in any assay. Activity calls are given as the source filed them. Rule for the calls: active = growth percent below 10; inactive = the rest.
ASSAY_METRIC: growth

COMPOUND	growth
COc1ccc(C2Nc3nc(SC)nc(N)c3N=C3c4ccccc4CCC32)cc1 (stereo not given)	62.9% (inactive)
COc1cc(C=O)ccc1Oc1ccc([N+](=O)[O-])cc1[N+](=O)[O-]	99.2% (inactive)
CN1CCN(Cc2ccc(NC(=O)c3cccc(C#Cc4c(N)ncc5ccc(F)cc45)c3)cc2C(F)(F)F)CC1	-80.9% (active)

Exercise: Give growth (MCF7 breast) of the following compound: Cc1ccc(-c2nc(C#N)c(S(=O)(=O)N(C)C)o2)cc1
Key: 46.1% (inactive)

Exercise: Give growth (MCF7 breast) of the following compound: Cc1n(Cc2ccc3ccccc3c2)c(Cl)c(Cl)[n+]1Cc1ccc2ccccc2c1
Key: 21.4% (inactive)

Exercise: Give growth (MCF7 breast) of the following compound: CCOC(=O)C(=Cc1ccc(C#N)cc1)C(=O)OCC
Key: 12.3% (inactive)

Exercise: Give growth (MCF7 breast) of the following compound: Nc1ccc(/C=N/Nc2ccnc3c(N)cccc23)c2cccnc12
Key: -47.1% (active)

Exercise: Give growth (MCF7 breast) of the following compound: C=C1C(=O)O[C@@H]2[C@H]3[C@H](COC(C)=O)[C@@H](OC(C)=O)C[C@H]3C(=C)[C@@H](O)C[C@@H]12
Key: 76.8% (inactive)

Exercise: Give growth (MCF7 breast) of the following compound: CCCCC1=C(Br)C(=O)c2nc(C)ccc2C1=O
Key: 82.1% (inactive)

Exercise: Give growth (MCF7 breast) of the following compound: Cn1cc(-c2nonc2-c2cn(C)c3ccc(Br)cc23)c2ccccc21
Key: 15.4% (inactive)

The reported measurements were obtained from PubChem BioAssay (NCI).
